Test system: Spodoptera frugiperda
Measurement notes: Spodoptera frugiperda test on maize plants (SPODFR S)
Assay type: in vivo
Test context: 120 h, 0.16 ppm, infection 5 dat, 6 dai, read-out: % Efficacy
Form field: Emax at 0.16 ppm (one value per entry).
Number in %, nothing else.

Examples with their reported Emax at 0.16 ppm follow.
{"columns": ["Compound", "Emax at 0.16 ppm / %"],
 "data": [
  ["CCS(=O)(=O)c1c(-c2nc3cc(C(F)(F)F)cnc3n2C)ncc2cc(C(F)(F)F)ccc12 [Example I-51, reference compound]", 20],
  ["CCS(=O)(=O)c1c(-c2nc3cc(C(F)(F)F)cnc3n2C)ncc2cc(Br)ccc12", 70],
  ["CCS(=O)(=O)c1c(-c2nc3cc(C(F)(F)F)cnc3n2C)ncc2cc(OCC(F)(F)F)ccc12", 90]
]}

# evaluate next
CCS(=O)(=O)c1c(-c2nc3cc(C(F)(F)F)cnc3n2C)ncc2c(C(F)(F)F)cccc12 yielded Emax at 0.16 ppm of 100
